Target: HLA-B*5101 (human), P01889
Assay: competition
Settings: modification not given
quantityKind: IC50 (nM)
State just the number; it will be interpreted in nM.

-- ask Entry FPVRPQVPL [HIV nef 84] has what IC50?
-- reply 12
